ASSAY TEXT: Biodistribution in testis of Fischer 344 rat bearing rat 9L cells at 20 uCi, iv after 120 mins
Format: ADME, organism-based
EXPERIMENTAL PARAMETERS: in vivo, 2 h
MEASUREMENT KIND: Drug uptake (% ID/g)
Numeric answer only, unit % ID/g assumed.

Q. // returns reported Drug uptake for input "C[C@@](N)(C[18F])C(=O)O.Cl"
A. 0.17

Q. Now the molecule "CN[C@](C)(C[18F])C(=O)O.Cl"
A. 0.08

Q. Now the molecule "CN[C@@](C)(C[18F])C(=O)O.Cl"
A. 0.16

Q. Now the molecule "C[C@](N)(C[18F])C(=O)O.Cl"
A. 0.16

---

Tested on: Muscle tissue
ASSAY TEXT: Biodistribution in muscle of Fischer 344 rat bearing rat 9L cells at 20 uCi, iv after 30 mins
Format: ADME, organism-based
EXPERIMENTAL PARAMETERS: in vivo, 0.5 h
Assign Drug uptake to each entry below.
Numeric answer only, unit % ID/g assumed.

Q. // returns reported Drug uptake for input "CN[C@](C)(C[18F])C(=O)O.Cl"
A. 0.26

Q. Now the molecule "C[C@](N)(C[18F])C(=O)O.Cl"
A. 0.32

Q. Now the molecule "CN[C@@](C)(C[18F])C(=O)O.Cl"
A. 0.23

Q. Now the molecule "C[C@@](N)(C[18F])C(=O)O.Cl"
A. 0.47

---

Tested on: Lung
ASSAY TEXT: Biodistribution in lung of Fischer 344 rat bearing rat 9L cells at 20 uCi, iv after 120 mins
Type: ADME, organism-based
EXPERIMENTAL PARAMETERS: in vivo, 2 h
MEASUREMENT KIND: Drug uptake
// unit must come after the numeric part

Q. // returns reported Drug uptake for input "C[C@](N)(C[18F])C(=O)O.Cl"
A. 0.23 % ID/g

Q. Now the compound "CN[C@@](C)(C[18F])C(=O)O.Cl"
A. 0.25 % ID/g

Q. Now the compound "CN[C@](C)(C[18F])C(=O)O.Cl"
A. 0.42 % ID/g

Q. Now the compound "C[C@@](N)(C[18F])C(=O)O.Cl"
A. 0.36 % ID/g

---

Test system: Liver
ASSAY TEXT: Biodistribution in liver of Fischer 344 rat bearing rat 9L cells at 20 uCi, iv after 60 mins
Format: ADME, organism-based
EXPERIMENTAL PARAMETERS: in vivo, 1 h
Assign Drug uptake to each entry below.
Numeric answer only, unit % ID/g assumed.

Q. API: value(readout=Drug uptake, system=Liver) for record "C[C@](N)(C[18F])C(=O)O.Cl"
A. 0.65

Q. Now the compound "CN[C@@](C)(C[18F])C(=O)O.Cl"
A. 0.52

Q. Now the compound "CN[C@](C)(C[18F])C(=O)O.Cl"
A. 0.88

Q. Now the compound "C[C@@](N)(C[18F])C(=O)O.Cl"
A. 0.54

---

ASSAY TEXT: Ratio of drug level from tumor to brain of Fischer 344 rat bearing rat 9L cells at 20 uCi, iv after 60 mins
EXPERIMENTAL PARAMETERS: in vivo, 1 h
MEASUREMENT KIND: Ratio
Respond numerically, and do not add a unit to the figure.

Q. // returns reported Ratio for input "C[C@](N)(C[18F])C(=O)O.Cl"
A. 28.6

Q. Now the compound "C[C@@](N)(C[18F])C(=O)O.Cl"
A. 30.9

Q. Now the compound "CN[C@@](C)(C[18F])C(=O)O.Cl"
A. 58.2

Q. Now the compound OC[C@H]1O[C@@H](O)[C@H]([18F])[C@@H](O)[C@@H]1O [FLUDEOXYGLUCOSE-F18]
A. 0.8

Q. Now the compound "CN[C@](C)(C[18F])C(=O)O.Cl"
A. 28.7

---

System: Pancreas
ASSAY TEXT: Biodistribution in pancreas of Fischer 344 rat bearing rat 9L cells at 20 uCi, iv after 120 mins
Format: ADME, organism-based
EXPERIMENTAL PARAMETERS: in vivo, 2 h
MEASUREMENT KIND: Drug uptake (% ID/g)
Numeric answer only, unit % ID/g assumed.

Q. // returns reported Drug uptake for input "C[C@@](N)(C[18F])C(=O)O.Cl"
A. 2.79

Q. Now the molecule "CN[C@](C)(C[18F])C(=O)O.Cl"
A. 3.78

Q. Now the molecule "CN[C@@](C)(C[18F])C(=O)O.Cl"
A. 3.39

Q. Now the molecule "C[C@](N)(C[18F])C(=O)O.Cl"
A. 1.17

---

System: 9L
ASSAY TEXT: Cellular uptake in rat 9L cells at 5 uCi measured […] by gamma counting in presence of system A transport inhibitor MeAIB
Type: ADME, cell-based
MEASUREMENT KIND: Drug uptake

Q. // returns reported Drug uptake for input "C[C@](N)(CF)C(=O)O.Cl"
A. 5.51 %ID

Q. Now the compound "C[C@@](N)(CF)C(=O)O.Cl"
A. 3.29 %ID

Q. Now the compound "CN[C@@](C)(CF)C(=O)O.Cl"
A. 0.6 %ID

Q. Now the compound "CN[C@](C)(CF)C(=O)O.Cl"
A. 0.82 %ID

---

EXPERIMENTAL PARAMETERS: rat, in vivo, iv, 1 h
Description: Biodistribution in tumor of Fischer 344 rat bearing rat 9L cells at 20 uCi, iv after 60 mins
MEASUREMENT KIND: Drug uptake (% ID/g)
Numeric answer only, unit % ID/g assumed.

Q. // returns reported Drug uptake for input "N[C@]1(C(=O)O)C[C@@H]([18F])C1"
A. 0.26

Q. Now the compound "OC[C@H]1O[C@@H](O)[C@H]([18F])[C@@H](O)[C@@H]1O"
A. 1.3

Q. Now the compound "CN[C@@](C)(C[18F])C(=O)O.Cl"
A. 0.05

Q. Now the compound "C[C@@](N)(C[18F])C(=O)O.Cl"
A. 0.06

Q. Now the compound "C[C@](N)(C[18F])C(=O)O.Cl"
A. 0.1

Q. Now the compound "CN[C@](C)(C[18F])C(=O)O.Cl"
A. 0.05

---

Tested on: 9L
ASSAY TEXT: Cellular uptake in rat 9L cells at 5 uCi measured per 0.5 million cells by gamma counting in presence of system ASC transport inhibitor ACS
MEASUREMENT KIND: Drug uptake (%ID)
Numeric answer only, unit %ID assumed.

Q. // returns reported Drug uptake for input "CN[C@@](C)(CF)C(=O)O.Cl"
A. 0.75

Q. Now the compound "CN[C@](C)(CF)C(=O)O.Cl"
A. 1.62

Q. Now the compound "C[C@](N)(CF)C(=O)O.Cl"
A. 1.7

Q. Now the compound "C[C@@](N)(CF)C(=O)O.Cl"
A. 1.33

---

System: Kidney
ASSAY TEXT: Biodistribution in kidney of Fischer 344 rat bearing rat 9L cells at 20 uCi, iv after 60 mins
Type: ADME, organism-based
EXPERIMENTAL PARAMETERS: in vivo, 1 h
Assign Drug uptake to each entry below.
Numeric answer only, unit % ID/g assumed.

Q. // returns reported Drug uptake for input "C[C@](N)(C[18F])C(=O)O.Cl"
A. 2.96

Q. Now the molecule "CN[C@@](C)(C[18F])C(=O)O.Cl"
A. 4.44

Q. Now the molecule "CN[C@](C)(C[18F])C(=O)O.Cl"
A. 5.18

Q. Now the molecule "C[C@@](N)(C[18F])C(=O)O.Cl"
A. 7.62

---

System: Blood
ASSAY TEXT: Biodistribution in blood of Fischer 344 rat bearing rat 9L cells at 20 uCi, iv after 60 mins
Type: ADME, organism-based
EXPERIMENTAL PARAMETERS: in vivo, 1 h
MEASUREMENT KIND: Drug uptake (% ID/g)
Numeric answer only, unit % ID/g assumed.

Q. // returns reported Drug uptake for input "C[C@](N)(C[18F])C(=O)O.Cl"
A. 0.25

Q. Now the compound "C[C@@](N)(C[18F])C(=O)O.Cl"
A. 0.4

Q. Now the compound "CN[C@](C)(C[18F])C(=O)O.Cl"
A. 0.24

Q. Now the compound "CN[C@@](C)(C[18F])C(=O)O.Cl"
A. 0.24

---

Assign Drug uptake to each entry below.
Test system: Heart
ASSAY TEXT: Biodistribution in heart of Fischer 344 rat bearing rat 9L cells at 20 uCi, iv after 60 mins
Assay type: ADME, organism-based
EXPERIMENTAL PARAMETERS: in vivo, 1 h
Numeric answer only, unit % ID/g assumed.

Q. // returns reported Drug uptake for input "C[C@@](N)(C[18F])C(=O)O.Cl"
A. 0.41

Q. Now the compound "C[C@](N)(C[18F])C(=O)O.Cl"
A. 0.34

Q. Now the compound "CN[C@](C)(C[18F])C(=O)O.Cl"
A. 0.31

Q. Now the compound "CN[C@@](C)(C[18F])C(=O)O.Cl"
A. 0.24

Recorded values, source ChEMBL document CHEMBL1154842.
